- ASSAYED_TARGET: TxtE (His6-TxtE-BM3R fusion) (Streptomyces scabiei)
- Construct: His6-TxtE-BM3R fusion with the full length heme-reductase linker (27 aa) from CYP102A1
- Sequence (P14779 whole entry, the tested form may be a part): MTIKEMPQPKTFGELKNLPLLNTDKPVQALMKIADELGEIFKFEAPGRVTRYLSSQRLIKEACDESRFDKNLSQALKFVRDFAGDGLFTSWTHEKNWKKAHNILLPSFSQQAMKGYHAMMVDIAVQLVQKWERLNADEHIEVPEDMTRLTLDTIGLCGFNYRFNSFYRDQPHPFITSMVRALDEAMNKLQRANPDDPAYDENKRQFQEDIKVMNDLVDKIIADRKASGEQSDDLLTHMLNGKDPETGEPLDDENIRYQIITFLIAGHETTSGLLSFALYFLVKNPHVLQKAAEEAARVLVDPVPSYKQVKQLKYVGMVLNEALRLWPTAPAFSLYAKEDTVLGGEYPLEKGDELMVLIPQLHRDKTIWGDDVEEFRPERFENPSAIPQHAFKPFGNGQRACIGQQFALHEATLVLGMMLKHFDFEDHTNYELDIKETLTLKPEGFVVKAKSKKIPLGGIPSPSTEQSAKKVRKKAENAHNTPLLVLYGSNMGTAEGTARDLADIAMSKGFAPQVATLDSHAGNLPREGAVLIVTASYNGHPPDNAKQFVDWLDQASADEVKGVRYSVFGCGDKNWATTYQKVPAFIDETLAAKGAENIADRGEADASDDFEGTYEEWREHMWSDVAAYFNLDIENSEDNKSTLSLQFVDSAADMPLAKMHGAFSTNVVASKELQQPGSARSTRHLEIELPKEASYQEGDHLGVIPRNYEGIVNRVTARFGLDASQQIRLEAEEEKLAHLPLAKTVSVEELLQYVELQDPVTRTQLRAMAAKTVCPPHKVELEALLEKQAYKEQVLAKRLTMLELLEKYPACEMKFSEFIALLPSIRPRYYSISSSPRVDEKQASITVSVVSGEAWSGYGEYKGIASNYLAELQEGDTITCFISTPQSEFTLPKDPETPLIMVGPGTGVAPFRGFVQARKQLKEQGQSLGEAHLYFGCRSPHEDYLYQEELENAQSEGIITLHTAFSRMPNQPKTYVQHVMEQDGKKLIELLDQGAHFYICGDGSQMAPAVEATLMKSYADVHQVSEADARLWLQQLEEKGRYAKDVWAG
- Sequence (C9ZDC6 entry or part of it): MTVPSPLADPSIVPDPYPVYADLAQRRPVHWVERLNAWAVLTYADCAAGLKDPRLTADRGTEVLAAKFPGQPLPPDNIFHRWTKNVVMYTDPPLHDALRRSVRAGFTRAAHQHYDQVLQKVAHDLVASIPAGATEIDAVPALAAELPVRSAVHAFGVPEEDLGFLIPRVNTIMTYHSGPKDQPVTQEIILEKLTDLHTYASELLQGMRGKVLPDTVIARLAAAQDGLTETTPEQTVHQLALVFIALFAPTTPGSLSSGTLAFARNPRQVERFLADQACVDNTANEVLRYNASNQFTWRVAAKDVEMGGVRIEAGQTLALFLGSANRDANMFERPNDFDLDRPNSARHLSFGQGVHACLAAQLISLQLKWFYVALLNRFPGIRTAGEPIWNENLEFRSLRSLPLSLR
- ASSAY: UV-Vis difference spectroscopy titration; purified-enzyme nitration assay

| RECORD_SMILES | ASSAYED_TARGET | Kd, µM |
| --- | --- | --- |
| N[C@@H](Cc1c[nH]c2ccccc12)C(=O)O | TxtE (His6-TxtE-BM3R fusion) (Streptomyces scabiei) | 84 |
